Assay: Plasma and brain 4R concentrations and pharmacokinetics in male rats
Type: in vivo, Sprague-Dawley rat
Details: male, Sprague-Dawley, rat, iv; 6 mg/kg i.v., plasma
Metric: AUC(0-inf) (ng·h/mL)
Report the value in ng·h/mL with no unit label.

Find the recorded AUC(0-inf) belonging to C/C1=C\[C@H](O)C[C@@](C)(O)/C=C/C(C(C)C)CC/C(C)=C/CC1 (stereo partly shown) and report it.
1140

----------
Test: Plasma and brain 4R concentrations and pharmacokinetics in male rats
Format: in vivo, Sprague-Dawley rat
Conditions: male, Sprague-Dawley, rat, plasma, im, 6 mg/kg, 6 mg/kg i.m., male rats; read-out: t1/2 (converted)
Metric: half-life

Which half-life is listed for C/C1=C\[C@H](O)C[C@@](C)(O)/C=C/C(C(C)C)CC/C(C)=C/CC1 (stereo partly shown) [4R] ?
~1.5 h

----------
Test: Plasma and brain 4R concentrations and pharmacokinetics in male rats
Type: in vivo, Sprague-Dawley rat
Conditions: male, Sprague-Dawley, rat, plasma, iv, 6 mg/kg, 6 mg/kg i.v.
Metric: Cmax (ng/mL)
Field: numeric (ng/mL). Do not append units.

Find the recorded Cmax belonging to C/C1=C\[C@H](O)C[C@@](C)(O)/C=C/C(C(C)C)CC/C(C)=C/CC1 (stereo partly shown) [4R] and report it.
1020

----------
Experiment: Plasma and brain 4R concentrations and pharmacokinetics in male rats
Type: in vivo, Sprague-Dawley rat
Settings: male, Sprague-Dawley, rat, plasma, iv; 6 mg/kg i.v.; read-out: F (bioavailability)
Metric: bioavailability (%)
Value expressed in %; do not type the unit.

# query: bioavailability of entry C/C1=C\[C@H](O)C[C@@](C)(O)/C=C/C(C(C)C)CC/C(C)=C/CC1 (stereo partly shown)
100

----------
Test: Plasma and brain 4R concentrations and pharmacokinetics in male rats
Format: in vivo, Sprague-Dawley rat
Settings: male, Sprague-Dawley, rat, brain, intravenous; 6 mg/kg i.v., at 1 hr post dose
Metric: concentration at 1 hr

Please give the measured concentration at 1 hr for this compound: C/C1=C\[C@H](O)C[C@@](C)(O)/C=C/C(C(C)C)CC/C(C)=C/CC1 (stereo partly shown) [4R]
3000 ng/g

----------
Assay: Metabolic stability / metabolite detection in human liver microsomes
Settings: both, human, liver microsomes, pH 7.4
Metric: remaining at 5 min, 10 μM (%)
Please reply with the bare figure in % and do not write the unit itself.

GET /values?readout=remaining at 5 min, 10 μM&item= C/C1=C\[C@H](O)C[C@@](C)(O)/C=C/C(C(C)C)CC/C(C)=C/CC1 (stereo partly shown)
15

----------
Assay: Metabolic stability / metabolite detection in human liver microsomes
Details: both, human, liver microsomes, pH 7.4
Metric: remaining at 0.25 h, 10 μM

Any idea what remaining at 0.25 h, 10 μM was measured for C/C1=C\[C@H](O)C[C@@](C)(O)/C=C/C(C(C)C)CC/C(C)=C/CC1 (stereo partly shown) ?
< 2%

----------
Assay: Plasma and brain 4R concentrations and pharmacokinetics in male rats
Type: in vivo, Sprague-Dawley rat
Settings: male, Sprague-Dawley, rat, plasma, intravenous; 6 mg/kg i.v., at 5 min
Metric: concentration at 5 min (ng/mL)
Number in ng/mL, nothing else.

Which concentration at 5 min is listed for C/C1=C\[C@H](O)C[C@@](C)(O)/C=C/C(C(C)C)CC/C(C)=C/CC1 (stereo partly shown) ?
975

----------
Test: Plasma and brain 4R concentrations and pharmacokinetics in male rats
Type: in vivo, Sprague-Dawley rat
Conditions: male, Sprague-Dawley, rat, plasma, sc, 6 mg/kg, 6 mg/kg s.c.
Metric: Tmax (h)
// units = h; emit number, no label

Look at this compound and give its reported Tmax. C/C1=C\[C@H](O)C[C@@](C)(O)/C=C/C(C(C)C)CC/C(C)=C/CC1 (stereo partly shown)
1

----------
Assay: Metabolic stability / metabolite detection in human liver microsomes
Settings: both, human, liver microsomes, pH 7.4
Metric: remaining at 5 min, 1 μM (%)
Report as a plain number; the unit % is understood.

I have this compound here, C/C1=C\[C@H](O)C[C@@](C)(O)/C=C/C(C(C)C)CC/C(C)=C/CC1 (stereo partly shown) , and I need its recorded remaining at 5 min, 1 μM.
8

----------
Assay: Metabolic stability / metabolite detection in rat liver microsomes
Conditions: both, rat, liver microsomes, pH 7.4
Metric: remaining at 5 min, 1 μM (%)
Give just the numeric value; % need not be written.

I'd like to know its remaining at 5 min, 1 μM. The compound in question is C/C1=C\[C@H](O)C[C@@](C)(O)/C=C/C(C(C)C)CC/C(C)=C/CC1 (stereo partly shown)
19

----------
Assay: Plasma and brain 4R concentrations and pharmacokinetics in male rats
Type: in vivo, Sprague-Dawley rat
Settings: male, Sprague-Dawley, rat, sc; 6 mg/kg s.c., plasma
Metric: AUC(0-inf) (ng·h/mL)
State the answer as a number, implicitly in ng·h/mL.

Form field: reported AUC(0-inf) of C/C1=C\[C@H](O)C[C@@](C)(O)/C=C/C(C(C)C)CC/C(C)=C/CC1 (stereo partly shown) [4R]
466

----------
Test: Plasma and brain 4R concentrations and pharmacokinetics in male rats
Assay type: in vivo, Sprague-Dawley rat
Settings: male, Sprague-Dawley, rat, plasma, sc, 6 mg/kg, 6 mg/kg s.c.
Metric: Cmax (ng/mL)
State the answer as a number, implicitly in ng/mL.

Fill in the blank: the reported Cmax of C/C1=C\[C@H](O)C[C@@](C)(O)/C=C/C(C(C)C)CC/C(C)=C/CC1 (stereo partly shown) is ____.
138

----------
Test: Plasma and brain 4R concentrations and pharmacokinetics in male rats
Format: in vivo, Sprague-Dawley rat
Settings: male, Sprague-Dawley, rat, brain and plasma, im, 6 mg/kg, 6 mg/kg i.m., 90 min after dose; read-out: Ratio Cmax brain/ plasma
Metric: Kp at 1.5 h
Answer field: number only, no words.

Look up Kp at 1.5 h: C/C1=C\[C@H](O)C[C@@](C)(O)/C=C/C(C(C)C)CC/C(C)=C/CC1 (stereo partly shown)
2.49

----------
Experiment: Metabolic stability / metabolite detection in human liver microsomes
Details: both, human, liver microsomes, pH 7.4
Metric: remaining at 0.25 h, 1 μM (%)
Enter your answer as a number in %; do not include the unit.

For the molecule shown here, C/C1=C\[C@H](O)C[C@@](C)(O)/C=C/C(C(C)C)CC/C(C)=C/CC1 (stereo partly shown) , give the reported remaining at 0.25 h, 1 μM.
4

----------
Assay: Plasma and brain 4R concentrations and pharmacokinetics in male rats
Format: in vivo, Sprague-Dawley rat
Conditions: male, Sprague-Dawley, rat, plasma, iv, 6 mg/kg, 6 mg/kg i.v., male rats; read-out: t1/2 (converted)
Metric: half-life (min)
Your answer is read as min, so omit the unit and give the number.

Need half-life of C/C1=C\[C@H](O)C[C@@](C)(O)/C=C/C(C(C)C)CC/C(C)=C/CC1 (stereo partly shown) , thanks.
36

----------
Test: Plasma and brain 4R concentrations and pharmacokinetics in male rats
Assay type: in vivo, Sprague-Dawley rat
Conditions: male, Sprague-Dawley, rat, plasma, subcutaneous; 6 mg/kg s.c., at 1 hr
Metric: concentration at 1 hr

What value of measured concentration at 1 hr is listed for C/C1=C\[C@H](O)C[C@@](C)(O)/C=C/C(C(C)C)CC/C(C)=C/CC1 (stereo partly shown) ?
134 ng/mL

----------
Assay: Plasma and brain 4R concentrations and pharmacokinetics in male rats
Format: in vivo, Sprague-Dawley rat
Details: male, Sprague-Dawley, rat, plasma, intravenous; 6 mg/kg i.v., by 8 hr post dose
Metric: concentration at 8 hr

// returns reported concentration at 8 hr for input C/C1=C\[C@H](O)C[C@@](C)(O)/C=C/C(C(C)C)CC/C(C)=C/CC1 (stereo partly shown)
< 20 ng/mL

----------
Test: Metabolic stability / metabolite detection in rat liver microsomes
Conditions: both, rat, liver microsomes, pH 7.4
Metric: remaining at 5 min, 10 μM (%)
Record the value in %, omitting the unit from your answer.

// remaining at 5 min, 10 μM lookup, key: C/C1=C\[C@H](O)C[C@@](C)(O)/C=C/C(C(C)C)CC/C(C)=C/CC1 (stereo partly shown) [4R]
29

----------
Assay: Plasma and brain 4R concentrations and pharmacokinetics in male rats
Type: in vivo, Sprague-Dawley rat
Settings: male, Sprague-Dawley, rat, plasma, intramuscular; 6 mg/kg i.m., AUCinf relative to i.v.; read-out: F (bioavailability)
Metric: bioavailability (%)
Dear colleague, please return just the value in %, with no unit written.

Looking for the measured bioavailability of C/C1=C\[C@H](O)C[C@@](C)(O)/C=C/C(C(C)C)CC/C(C)=C/CC1 (stereo partly shown) , can you help?
35

----------
Test: Plasma and brain 4R concentrations and pharmacokinetics in male rats
Assay type: in vivo, Sprague-Dawley rat
Settings: male, Sprague-Dawley, rat, plasma, im, 6 mg/kg, 6 mg/kg i.m.
Metric: Tmax

Any idea what Tmax was measured for C/C1=C\[C@H](O)C[C@@](C)(O)/C=C/C(C(C)C)CC/C(C)=C/CC1 (stereo partly shown) [4R] ?
~1 h
